These measurements were taken from patent US9440957B2.

Biological target: EGFR(L858R/T790M) (Homo sapiens, UniProt P00533, L858R/T790M)
Construct: purchased from Carna (GST-a.a. 669-1210)
Sequence (P00533 669-1210 T790M/L858R): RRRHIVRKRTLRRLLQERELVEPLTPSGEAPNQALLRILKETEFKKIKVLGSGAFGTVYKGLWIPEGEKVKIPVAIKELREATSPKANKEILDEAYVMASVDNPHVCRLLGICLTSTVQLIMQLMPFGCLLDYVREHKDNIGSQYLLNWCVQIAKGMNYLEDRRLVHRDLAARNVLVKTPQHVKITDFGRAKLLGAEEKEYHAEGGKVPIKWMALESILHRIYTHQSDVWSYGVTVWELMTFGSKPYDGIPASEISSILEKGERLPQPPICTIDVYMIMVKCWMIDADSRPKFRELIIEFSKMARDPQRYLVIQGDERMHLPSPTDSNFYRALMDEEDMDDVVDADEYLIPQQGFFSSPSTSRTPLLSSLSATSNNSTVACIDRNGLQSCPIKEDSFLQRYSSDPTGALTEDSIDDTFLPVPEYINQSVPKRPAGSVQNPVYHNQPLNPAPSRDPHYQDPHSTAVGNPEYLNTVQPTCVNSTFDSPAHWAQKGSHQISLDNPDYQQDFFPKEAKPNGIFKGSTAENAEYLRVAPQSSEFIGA
Assay: EGFR biochemical assay (HTRF), IC50 determinations
Conditions: EGFR (L858R/T790M) with 90 min pre-incubation; read-out: IC50 (μM) Column B
Procedure: All EGFR biochemical assays were carried out by HTRF method. […] The substrate peptide Biotin-TK-peptide was purchased from Cis-Bio. […] All reactions were carried out at room temperature in white ProxiPlate™ 384-well Plus plates (PerkinElmer) and were quenched with 5 μL of 0.2 M EDTA at 60 min. Five L of the detection reagents (2.5 ng PT66K and 0.05 μg SAXL per well) were added, the plates were incubated at room temperature for 1 h and then read in EnVision reader. […]
RECORDED_ENDPOINT: IC50

Worked set:
[
  {
    "COMPOUND": "C=CC(=O)N1CCCC[C@@H](n2c(NC(=O)c3ccnnc3)nc3cccc(OC(C)C)c32)C1",
    "IC50": "0.004 µM"
  },
  {
    "COMPOUND": "C=CC(=O)N1CCCC[C@@H](n2c(NC(=O)c3ccnc(C)c3)nc3cc(CN4CC[C@@H](F)C4)cc(C)c32)C1",
    "IC50": "< 0.001 µM"
  },
  {
    "COMPOUND": "Cc1cc(C(=O)Nc2nc3cccc(Cl)c3n2[C@@H]2CCCCN(C(=O)/C=C/CN3CC(F)C3)C2)ccn1",
    "IC50": "< 0.001 µM"
  }
]

Report IC50 from EGFR(L858R/T790M) (Homo sapiens, UniProt P00533, L858R/T790M) testing of Cc1cc(C(=O)Nc2nc3cccc(C)c3n2[C@@H]2CCCCN(C(=O)/C=C/CN(C)C)C2)cc(Cl)n1
< 0.001 µM

Report IC50 from EGFR(L858R/T790M) (Homo sapiens, UniProt P00533, L858R/T790M) testing of C=C(CN1CCCC1)C(=O)N1CCCC[C@@H](n2c(NC(=O)c3ccnnc3)nc3cccc(C)c32)C1
0.007 µM

Report IC50 from EGFR(L858R/T790M) (Homo sapiens, UniProt P00533, L858R/T790M) testing of COc1cc(C(=O)Nc2nc3cccc(C)c3n2C2CCCCN(C(=O)/C=C/CN(C)C)C2)ccn1 (centres unmarked)
< 0.001 µM

Report IC50 from EGFR(L858R/T790M) (Homo sapiens, UniProt P00533, L858R/T790M) testing of C=CC(=O)N1CCCC[C@@H](n2c(NC(=O)c3cc(C)nc(C)c3)nc3cc(CN4CCN(C)C(=O)C4)cc(C)c32)C1
< 0.001 µM

Report IC50 from EGFR(L858R/T790M) (Homo sapiens, UniProt P00533, L858R/T790M) testing of COc1cc(C(=O)Nc2nc3cccc(C)c3n2[C@@H]2CCCCN(C(=O)/C=C/CN(C)C)C2)ccn1
< 0.001 µM

Report IC50 from EGFR(L858R/T790M) (Homo sapiens, UniProt P00533, L858R/T790M) testing of Cc1cccc2nc(NC(=O)c3ccncc3)n(C3CCCCN(C(=O)/C=C/CN(C)C)C3)c12 (centres unmarked)
< 0.001 µM

Report IC50 from EGFR(L858R/T790M) (Homo sapiens, UniProt P00533, L858R/T790M) testing of Cc1cccc2nc(NC(=O)c3ccnc(N(C)C)c3)n(C3CCCCN(C(=O)/C=C/CN(C)C)C3)c12 (centres unmarked)
< 0.001 µM

Report IC50 from EGFR(L858R/T790M) (Homo sapiens, UniProt P00533, L858R/T790M) testing of O=C(Nc1nc2cccc(Cl)c2n1[C@@H]1CCCCN(C(=O)/C=C/CN2CC[C@@H](F)C2)C1)c1ccnnc1
< 0.001 µM

Report IC50 from EGFR(L858R/T790M) (Homo sapiens, UniProt P00533, L858R/T790M) testing of Cc1cc(C(=O)Nc2nc3cccc(Cl)c3n2[C@H]2CCCCN(C(=O)/C=C/CN(C)C)C2)cc(C)n1
0.117 µM

Report IC50 from EGFR(L858R/T790M) (Homo sapiens, UniProt P00533, L858R/T790M) testing of C=CC(=O)N1CCCCC(n2c(NC(=O)c3ccccc3)nc3cccc(C(=O)NCCS(C)(=O)=O)c32)C1 (centres unmarked)
0.005 µM

Report IC50 from EGFR(L858R/T790M) (Homo sapiens, UniProt P00533, L858R/T790M) testing of C=CS(=O)(=O)N1CCCCC(n2c(NC(=O)c3cccc(C(F)(F)F)c3)nc3cccc(C)c32)C1 (centres unmarked)
0.009 µM

* * *

Biological target: human EGFR L858R (NIH/3T3 cells) (Homo sapiens, UniProt P00533, L858R)
Sequence (P00533 25-1210 L858R): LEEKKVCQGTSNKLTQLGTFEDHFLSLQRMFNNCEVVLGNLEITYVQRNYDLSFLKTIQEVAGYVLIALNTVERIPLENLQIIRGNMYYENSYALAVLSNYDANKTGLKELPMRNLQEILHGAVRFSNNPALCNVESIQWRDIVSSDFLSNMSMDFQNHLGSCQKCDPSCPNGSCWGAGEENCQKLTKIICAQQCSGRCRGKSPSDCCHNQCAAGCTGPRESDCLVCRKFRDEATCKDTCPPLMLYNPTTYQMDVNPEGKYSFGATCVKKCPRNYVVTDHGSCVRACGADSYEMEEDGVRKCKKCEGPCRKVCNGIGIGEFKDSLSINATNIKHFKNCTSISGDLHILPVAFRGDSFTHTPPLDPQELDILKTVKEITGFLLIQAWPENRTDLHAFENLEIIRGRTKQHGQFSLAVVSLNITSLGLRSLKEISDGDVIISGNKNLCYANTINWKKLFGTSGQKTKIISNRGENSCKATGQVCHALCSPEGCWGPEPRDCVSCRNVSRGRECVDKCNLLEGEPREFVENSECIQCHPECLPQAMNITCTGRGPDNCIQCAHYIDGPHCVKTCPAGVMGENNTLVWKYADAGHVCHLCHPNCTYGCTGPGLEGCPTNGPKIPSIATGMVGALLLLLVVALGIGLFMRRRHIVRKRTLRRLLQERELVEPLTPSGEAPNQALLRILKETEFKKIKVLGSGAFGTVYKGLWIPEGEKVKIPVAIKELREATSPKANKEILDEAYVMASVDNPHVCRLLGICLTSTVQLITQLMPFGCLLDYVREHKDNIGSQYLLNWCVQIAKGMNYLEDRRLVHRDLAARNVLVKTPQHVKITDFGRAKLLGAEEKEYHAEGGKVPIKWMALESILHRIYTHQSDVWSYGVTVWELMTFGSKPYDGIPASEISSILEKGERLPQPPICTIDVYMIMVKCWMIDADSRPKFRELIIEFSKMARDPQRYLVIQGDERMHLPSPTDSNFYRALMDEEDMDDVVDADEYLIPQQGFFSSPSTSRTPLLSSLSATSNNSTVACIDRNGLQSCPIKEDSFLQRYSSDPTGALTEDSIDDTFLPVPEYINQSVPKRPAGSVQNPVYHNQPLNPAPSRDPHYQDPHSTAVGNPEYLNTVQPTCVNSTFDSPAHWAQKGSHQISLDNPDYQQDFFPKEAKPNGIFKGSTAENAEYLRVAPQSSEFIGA
Test: EGFR target modulation in engineered NIH/3T3 cell lines (phospho-EGFR Y1068 AlphaLISA), EGFR L858R
Type: cell-based
Conditions: engineered NIH/3T3 cells, read-out: NIH3T3 IC50 (μM) EGFR (L858R)
RECORDED_ENDPOINT: IC50 (µM)

Worked set:
[
  {
    "COMPOUND": "C=CC(=O)N1CCCCC(n2c(NC(=O)c3ccccc3)nc3cccc(C(=O)NCC(=O)OC)c32)C1 (stereo not shown)",
    "REPORTED_VALUE": 0.4
  },
  {
    "COMPOUND": "Cc1cc(C(=O)Nc2nc3cccc(Cl)c3n2[C@@H]2CCCCN(C(=O)/C=C/CN3CC[C@H](O)C3)C2)ccn1",
    "REPORTED_VALUE": 0.009
  },
  {
    "COMPOUND": "CC#CC(=O)N1CCCCC(n2c(NC(=O)c3cccc(C(F)(F)F)c3)nc3cccc(C)c32)C1 (stereo not shown)",
    "REPORTED_VALUE": 0.33
  },
  {
    "COMPOUND": "C=CC(=O)N1CCC[C@@H](n2c(NC(=O)c3cccc(C(F)(F)F)c3)nc3cc(CO)ccc32)C1",
    "REPORTED_VALUE": 0.259
  }
]

a = C=CC(=O)N1CCCC[C@@H](n2c(NC(=O)c3ccnc(C)c3)nc3cc(CN4CC[C@@H](OC)C4)cc(C)c32)C1
b = COc1cccc(C(=O)Nc2nc3cccc(C)c3n2C2CCCCN(C(=O)/C=C/CN(C)C)C2)c1 (stereo not shown)
c = Cc1cccc2nc(NC(=O)c3ccnc(-n4cnnn4)c3)n(C3CCCCN(C(=O)/C=C/CN(C)C)C3)c12 (stereo not shown)
d = C=CC(=O)N1CCCCC(n2c(NC(=O)c3cccc(C(F)(F)F)c3)nc3cc(C)ccc32)C1 (stereo not shown)
Parameters: sort_field (IC50), sort_dir (desc). // format: requested-order list of labels
d, b, c, a
(d: 0.081 µM, b: 0.015 µM, c: 0.002 µM, a: 0.001 µM)

1 = C=CC(=O)N1CCC[C@@H](n2c(NC(=O)c3cccc(C(F)(F)F)c3)nc3cc(COCC)ccc32)C1
2 = C=CC(=O)N1CCC[C@@H](n2c(NC(=O)c3ccnc(C)c3)nc3cccc(C)c32)C1
Consider 1 and 2 . Which of these has its IC50 at a higher number? Mark your selection by writing its label.
1

* * *

Target: human EGFR WT (NIH/3T3 cells, EGF-induced) (Homo sapiens)
Sequence (P00533 25-1210): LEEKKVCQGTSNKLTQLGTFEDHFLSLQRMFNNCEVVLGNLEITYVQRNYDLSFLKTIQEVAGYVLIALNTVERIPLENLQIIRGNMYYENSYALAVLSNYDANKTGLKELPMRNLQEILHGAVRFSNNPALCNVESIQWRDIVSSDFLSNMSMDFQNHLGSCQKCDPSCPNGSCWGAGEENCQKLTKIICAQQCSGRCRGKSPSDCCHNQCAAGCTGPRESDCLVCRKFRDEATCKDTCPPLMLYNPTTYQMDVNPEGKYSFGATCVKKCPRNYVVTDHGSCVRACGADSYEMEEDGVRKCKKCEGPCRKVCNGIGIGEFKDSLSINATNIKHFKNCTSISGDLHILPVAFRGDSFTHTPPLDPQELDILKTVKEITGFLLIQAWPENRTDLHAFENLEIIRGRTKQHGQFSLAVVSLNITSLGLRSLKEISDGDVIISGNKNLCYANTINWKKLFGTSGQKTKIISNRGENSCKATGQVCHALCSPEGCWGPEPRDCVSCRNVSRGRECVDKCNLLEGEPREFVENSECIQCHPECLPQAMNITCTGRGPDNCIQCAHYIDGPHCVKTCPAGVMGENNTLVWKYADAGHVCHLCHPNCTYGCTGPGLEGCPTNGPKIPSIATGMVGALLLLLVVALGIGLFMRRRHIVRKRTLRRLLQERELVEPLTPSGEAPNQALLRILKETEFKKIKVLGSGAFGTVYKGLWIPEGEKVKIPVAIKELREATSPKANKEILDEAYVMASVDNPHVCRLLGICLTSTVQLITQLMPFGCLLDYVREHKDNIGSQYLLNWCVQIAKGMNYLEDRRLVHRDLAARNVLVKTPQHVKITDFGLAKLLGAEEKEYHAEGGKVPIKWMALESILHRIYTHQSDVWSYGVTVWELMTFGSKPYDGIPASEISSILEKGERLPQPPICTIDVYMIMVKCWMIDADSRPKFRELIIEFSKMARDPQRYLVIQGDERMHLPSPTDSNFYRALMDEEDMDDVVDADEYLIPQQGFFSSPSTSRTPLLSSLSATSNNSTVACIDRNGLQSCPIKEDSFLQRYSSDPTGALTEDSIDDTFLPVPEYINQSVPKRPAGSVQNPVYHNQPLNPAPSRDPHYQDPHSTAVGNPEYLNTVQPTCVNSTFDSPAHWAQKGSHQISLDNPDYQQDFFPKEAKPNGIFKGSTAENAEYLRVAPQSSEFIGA
Assay: EGFR target modulation in engineered NIH/3T3 cell lines (phospho-EGFR Y1068 AlphaLISA), EGFR WT
Format: cell-based
Conditions: engineered NIH/3T3 cells, read-out: NIH3T3 IC50 (μM) EGFR (WT)
RECORDED_ENDPOINT: IC50 (µM)

Worked set:
[
  {
    "COMPOUND": "C=CC(=O)N1CCCC[C@@H](n2c(NC(=O)c3ccnnc3)nc3cccc(C)c32)C1",
    "IC50 (µM)": 0.031
  },
  {
    "COMPOUND": "Cc1cccc2nc(NC(=O)c3cnc(Cl)c(Cl)c3)n([C@@H]3CCCCN(C(=O)/C=C/CN(C)C)C3)c12",
    "IC50 (µM)": 0.152
  },
  {
    "COMPOUND": "Cc1cccc2nc(NC(=O)c3cccc(F)c3F)n(C3CCCCN(C(=O)/C=C/CN(C)C)C3)c12 (stereo not drawn)",
    "IC50 (µM)": 0.67
  },
  {
    "COMPOUND": "Cc1cccc2nc(NC(=O)c3ccco3)n(C3CCCCN(C(=O)/C=C/CN(C)C)C3)c12 (stereo not drawn)",
    "IC50 (µM)": 0.263
  },
  {
    "COMPOUND": "C=CC(=O)N1CCCC[C@@H](n2c(NC(=O)c3ccnc(C)c3)nc3cccc(Cl)c32)C1",
    "IC50 (µM)": 0.211
  },
  {
    "COMPOUND": "Cc1ccccc1-c1cc(C(=O)Nc2nc3cccc(C)c3n2[C@@H]2CCCCN(C(=O)/C=C/CN(C)C)C2)ccn1",
    "IC50 (µM)": 0.002
  },
  {
    "COMPOUND": "Cc1cc(C(=O)Nc2nc3cccc(Cl)c3n2[C@@H]2CCCCN(C(=O)/C=C/CN3CC(F)C3)C2)ccn1",
    "IC50 (µM)": 0.183
  },
  {
    "COMPOUND": "C=CC(=O)N1CCCC[C@@H](n2c(NC(=O)c3ccccc3)nc3cccc(CN4CCC(O)C4)c32)C1 (stereo partly drawn)",
    "IC50 (µM)": 0.143
  },
  {
    "COMPOUND": "C=CC(=O)N1CCCC[C@@H](n2c(NC(=O)c3cccc(C(F)(F)F)c3)nc3cccc(C(=O)OC)c32)C1",
    "IC50 (µM)": 1.98
  },
  {
    "COMPOUND": "Cc1cccc2nc(NC(=O)c3ccncc3)n(C3CCCCN(C(=O)/C=C/CN(C)C)C3)c12 (stereo not drawn)",
    "IC50 (µM)": 0.14
  }
]

P = COc1cc(C(=O)Nc2nc3cccc(C)c3n2[C@@H]2CCCCN(C(=O)/C=C/CN(C)C)C2)cc(Cl)n1
Q = C=CC(=O)N1CCCC[C@@H](n2c(NC(=O)c3ccccc3)nc3cccc(COCCOC)c32)C1
R = C=CC(=O)N1CCCC[C@@H](n2c(NC(=O)c3ccccc3)nc3cc(CN(C)CCS(C)(=O)=O)cc(C)c32)C1
Parameters: sort_field (IC50), sort_dir (desc). // format: requested-order list of labels
Q, P, R
